- System: human dermal fibroblasts (HDFa)
- Test Details: MTT cell viability assay on dermal fibroblasts
- Type: cell-based
- Condition Details: HDFa, 100 μM, 24 hours
Let's look at some substances and their measured % inhibition cell viability.
Numeric only. Scale: %

INSERT INTO measurements (substance, experimental_result) VALUES
  ('Ac-WEQEFLRR-NH2 [SEQ ID NO: 5 acetyl, WEQEFLRR]', 15.0),
  ('Ac-MQVWLRMWIDYRAT-NH2 [SEQ ID NO: 2 acetyl, MQVWLRMWIDYRAT]', 7.8),
  ('Ac-HYWRELQYR-NH2 [SEQ ID NO: 1 acetyl, HYWRELQYR]', 6.8);

In the following, a different substance is considered.
Q. What does the data say about its % inhibition cell viability? Entry: Ac-LRVQMVNMFL-NH2 [SEQ ID NO: 4 acetyl, LRVQMVNMFL]
A. 41.5
